Entries and their plate-normalized OD600 growth
tested on: Escherichia coli BW25113; experiment: plate-normalized OD600 growth (mean of duplicates) (OD600 (normalized)); higher = more growth (less inhibition); details: temperature: 37°C; 24 h; 10 µM
Whole data set: some 2,300 compounds, median “plate-normalized OD600 growth (mean of duplicates)” near 0.29, cut for the lowest 2% near 0.22. For the sample, the lowest values were picked, then their nearest neighbours and some compounds at random.
valueType: plate-normalized OD600 growth

molecule | valueType | reportedMeasurement
CCOc1ccc(C(C)(C)C(=O)Nc2ccc(C(=O)/C=C/c3ccco3)cc2)cc1 | plate-normalized OD600 growth | 0.639
O=C1c2cccc3c(SCCO)ccc(c23)C(=O)N1CCc1ccccn1 | plate-normalized OD600 growth | 0.634
CCOC(=O)C(=CNNc1ccnc2cc(Cl)ccc12)C(=O)OCC | plate-normalized OD600 growth | 0.616
COc1cc(CCNC(=O)OC(C)(C)C)c([S+]([O-])CSCc2ccccc2)cc1OC (configuration not stated) | plate-normalized OD600 growth | 0.613
CC(=O)C1C(=O)CC(C)(O)C(C(C)=O)C1c1ccc(Br)cc1 (configuration not stated) | plate-normalized OD600 growth | 0.616
COCc1cc(C)nc2sc(C(=O)OC)c(N)c12 | plate-normalized OD600 growth | 0.626
O=C1/C(=C\c2ccccc2)N=C(c2ccccc2)N1CNc1nccs1 | plate-normalized OD600 growth | 0.585
CC(=O)C1=C(Nc2ccc(C)cc2)CC(C)(O)C(C(C)=O)C1c1ccc(F)cc1 (configuration not stated) | plate-normalized OD600 growth | 0.598
Cc1cc(O)c(C)c(O)c1/C=N/NC(=O)CNC(=O)c1ccco1 | plate-normalized OD600 growth | 0.61
CCc1c(C)nc2[nH]nc(-c3ccccc3C)n2c1=O | plate-normalized OD600 growth | 0.626
Cc1ccc(C2=Nc3ccccc3N=C(C(Cl)Cl)C2)cc1 | plate-normalized OD600 growth | 0.629
Cc1cc(=O)n2c(-c3ccc(Cl)cc3)csc2n1 | plate-normalized OD600 growth | 0.607
O=C(O)CCCN1C(=O)C(=O)C(=C(O)c2ccccc2)C1c1ccc(Br)cc1 (configuration not stated) | plate-normalized OD600 growth | 0.646
CCOC(=O)C(=CNNC(=O)c1ccccc1-n1cccc1)C(=O)OCC | plate-normalized OD600 growth | 0.618
Cc1c(NC(=O)c2ccc(N)cc2)c(=O)n(-c2ccccc2)n1C | plate-normalized OD600 growth | 0.629
O=C1CCc2cccc3cccc1c23 | plate-normalized OD600 growth | 0.604
COc1cccc(C2C3=C(CC(C)(C)CC3=O)OC(N)=C2[N+](=O)[O-])c1 (configuration not stated) | plate-normalized OD600 growth | 0.619
N/C(=N\OC(=O)c1ccno1)c1ccc(C(F)(F)F)cc1 | plate-normalized OD600 growth | 0.612
CCOC(=O)C(=CNNS(=O)(=O)c1cc(C(F)(F)F)cc(C(F)(F)F)c1)C(=O)OCC | plate-normalized OD600 growth | 0.602
CCOC(=O)COc1nc(-c2ccccc2)cc(-c2ccccc2)c1C#N | plate-normalized OD600 growth | 0.629
CCc1c(C)nc2cc(-c3ccc(Cl)cc3)[nH]n2c1=O | plate-normalized OD600 growth | 0.632
Cc1cccc(NC(=O)COc2ccccc2C(=O)NCCNc2ccc([N+](=O)[O-])cc2)c1 | plate-normalized OD600 growth | 0.656

Numbers sourced from the supplement of paper PMC4371806.
